ASSAYED_SYSTEM: human GLP-1 receptor (human, UniProt P43220 24-463)
ASSAY_OVERVIEW: cell-based or functional assay
*1 amine or outer side, *2 acyl side, *3 side chain or, on linkers, in order; H or OH if unused. Bridges are numbered along the chain shown (N, C = ends). Where no end group is shown, it is not given here. [ ]: non-standard residue; d: D form. Oxa12‑cholesterol = C10 = Cys(oxa12-cholesterol); γGlu = O=C(O)[C@H](CCC(=O)[*:2])N[*:1]; oxa12‑cholesterol = not defined here; Aib = CC(C)(N)C(=O)O
Assignment: determine reported hGLP-1R + 20% Plasma EC50 for the given binders.
The figure you give is taken to be in nM; do not add the unit.

hGLP-1R + 20% Plasma EC50 lookup needed for HXQGTFTSDYSKYLDSRRAQDFVQWLMNTKEEC (Acb (1-amino-1-cyclobutane carboxylic acid) at position 2; gamma-glutamic acid at positions 31 and 32; C10 = Cys(oxa12-cholesterol) at position 33; C-terminal COOH) [OXM401] , thanks.
2.9

hGLP-1R + 20% Plasma EC50 lookup needed for HSQGTFTSDYSKYLDSRRAQDFVQWLMNTKEEC (D-Ser at position 2; gamma-glutamic acid at positions 31 and 32; C10 = Cys(oxa12-cholesterol) at position 33; C-terminal COOH) [OXM399] , thanks.
5.7

hGLP-1R + 20% Plasma EC50 lookup needed for HSQGTFTSDKSKYLDSRRAQDFVQWLMNTK (D-Ser at position 2; Lys(γE-γE-palmitoyl) at position 10; C-terminal amide) [OXM409] , thanks.
0.7

hGLP-1R + 20% Plasma EC50 lookup needed for HSQGTFTSDYSKYLDSRRAQDFVQWLMNTKEEC (D-Ser at position 2; gamma-glutamic acid at positions 31 and 32; C9 = Cys(mal-oxa12-cholesterol) at position 33; C-terminal COOH) [OXM381] , thanks.
1.9

hGLP-1R + 20% Plasma EC50 lookup needed for HXQGTFTSDYSKYLDSRRAQDFVQWLMNTKEEC (Aib at position 2; gamma-glutamic acid at positions 31 and 32; C10 = Cys(oxa12-cholesterol) at position 33; C-terminal COOH) [OXM400] , thanks.
1.9

hGLP-1R + 20% Plasma EC50 lookup needed for HSQGTFTSDYSKYLDSRRAQDFVQWLMNTKEEC (D-Ser at position 2; gamma-glutamic acid at positions 31 and 32; C7 = Cys(Oxa4-cholesterol) at position 33; C-terminal COOH) [OXM380] , thanks.
30.7

hGLP-1R + 20% Plasma EC50 lookup needed for H[Aib]QGTFTSDYSKYLDERRAKDFVQWLMNTK[γGlu][γGlu]C(Oxa12‑cholesterol)-OH (lactam 16-20) [OXM395] , thanks.
3.3

hGLP-1R + 20% Plasma EC50 lookup needed for H[dS]QGTFTSDYSKYLDERRAKDFVQWLMNTK[γGlu][γGlu]C(oxa12‑cholesterol)-OH (lactam 16-20; reading uncertain) [OXM392] , thanks.
3
